Test: Determination of metabolic stability (liver microsomes)
Assay type: in vitro ADME, Wistar rat
Conditions: rat liver microsomes, 20 μM, 15 min at 37° C.
Description: incubations were performed with Wistar rat liver microsomes (0.25 mg/ml) in 2% sodium bicarbonate solution. NADP (0.13 mg/ml), glucose-6-phosphate (0.63 mg/ml) and glucose-6-phosophate dehydrogenase (0.38 units/ml) were used as NADPH generation system and UDPGA (0.48 mg/ml) was added to include the phase II reaction, glucuronic acid conjugation, in the assay. After 5 minutes of pre-incubation the reaction was started by addition of the test article to give a final concentration of 20 μM. […]
Just a reminder that ties go to rule not met: only Metabolic turn-over in vitro strictly below 2% counts as rule met.

Item COc1ccc(C(=O)/C=C/c2cc(-c3ccccc3)cc(N3CCN(C)CC3)c2)c(CN(C)C)c1 [B111] : Metabolic turn-over in vitro beneath 2%, strictly? rule not met

Then Cc1cc(C)cc(-c2ccc(N(C)CCN(C)C)c(/C=C/C(=O)c3cccc(NCCN(C)C)c3)c2)c1 [B113] ? rule not met

What do you have for Cc1cc(C)cc(-c2ccc(N3CCN(C)CC3)c(/C=C/C(=O)c3ccccc3N)c2)c1 [B115] ? rule met

Moving on to the next compound: CN(C)CCN(C)c1cccc(/C=C/C(=O)c2ccccc2CN(C)C)c1 [B074] rule met

Same lookup for C=CC(C)(C)c1cc(/C=C/C(=O)c2ccc(O)cc2)c(OC)cc1O [LicA, Licochalcone A] , please. rule not met

Try this compound too: Cc1cc(C)cc(-c2ccc(N3CCN(C)CC3)c(/C=C/C(=O)c3cccc(NCCN(C)C)c3)c2)c1 [B101] rule not met

Moving on to Cc1ccccc1-c1cc(/C=C/C(=O)c2ccccc2CN(C)C)cc(N(C)CCN(C)C)c1 [B119] rule not met

Another compound: COc1ccccc1-c1ccc(/C=C/C(=O)c2ccccc2CN(C)CCN(C)C)c(N2CCN(C)CC2)c1 [B216] rule not met

Okay, and COc1ccccc1-c1ccc(N2CCN(C)CC2)c(/C=C/C(=O)c2ccccc2NS(=O)(=O)c2ccccc2)c1 [B185] ? rule met

---

test system: L. major promastigotes; test: Leishmania promastigote assay (3H-thymidine); conditions: L. major
Endpoint label: pIC50
# reply with the number alone; pIC50 is -log10 of concentration in mol/L

Suppose we examine the compound "CN(C)CCNc1ccc(C(=O)/C=C/c2ccc(Cl)cc2Cl)cc1" ; what pIC50 value has been reported? 6.10

Also "Cc1ccccc1-c1ccc(N2CCN(C)CC2)c(/C=C/C(=O)c2ccc(O)c(CN(C)C)c2)c1" , if possible. 5.96

Also "CN(C)CCNc1cccc(C(=O)/C=C/c2ccc(Cl)cc2Cl)c1" , if possible. 6.00

Next up: "COc1ccc(C(=O)/C=C/c2cc(-c3ccccc3OC)ccc2N2CCN(C)CC2)c(F)c1" 6.30

Also "CN(C)CCNc1ccc(C(=O)/C=C/c2ccc3ccccc3n2)cc1" , if possible. 6.05

Here is the next compound: "COc1ccccc1-c1ccc(/C=C/C(=O)c2ccccc2CN(C)C)c(N2CCN(C)CC2)c1" 5.92

---

test system: Plasmodium falciparum 3D7; test: Plasmodium falciparum assay (3H-phenylalanine labelling); assay type: cell-based; conditions: 3D7 (Cq-sen) (Table 3); read-out: Plasmodium falciparum IC50
Endpoint label: pIC50
Reminder that pIC50 is minus the log10 of a molar concentration.

Would you kindly share the measured pIC50 for "COc1ccc(C(=O)/C=C/c2cc(-c3ccccc3)cc(N3CCN(C)CC3)c2)c(CN(C)C)c1" ? 5.80

---

system: dihydroorotate dehydrogenase (DHODH); assay: DHODH assay; assay type: biochemical; details: test concentration not given
I'd appreciate it if you marked entries 1.0 when Inhibition of DHODH is lower than 20% and 0.0 when it is not.

Decide: Inhibition of DHODH of "COc1ccc(C(=O)/C=C/c2ccccc2N(C)CCN(C)C)c(F)c1" strictly below 20%? 1.0

Also check COc1ccc(C(=O)/C=C/c2ccccc2)cc1 [4′MC, 4′methoxy chalcone, reference compound] 1.0

Next: "CN(C)CCN(C)c1cccc(C(=O)/C=C/c2cc(F)ccc2F)c1" 0.0

Now give it for "CN(C)CCN(C)c1cccc(C(=O)/C=C/c2ccc(Cl)cc2Cl)c1" too. 0.0

Then this compound: "C=CC(C)(C)c1cc(/C=C/C(=O)c2ccc(O)cc2)c(OC)cc1O" 0.0

Another: "CN(C)CCN(C)c1cccc(C(=O)/C=C/c2ccc(Br)cc2F)c1" 0.0

---

system: L. major promastigotes; assay: Leishmania promastigote assay (3H-thymidine); details: Leishmania major
Endpoint label: IC50 (µM)
Output spec: scalar in µM, unitless text.

For "COc1ccccc1-c1ccc(N2CCN(C)CC2)c(/C=C/C(=O)c2ccccc2NS(=O)(=O)c2ccccc2)c1" , what is its reported IC50? 0.2

---

Please go through the items and note down their log10 Solubility.
assay: Determination of solubility in phosphate buffer pH 7.4; assay type: physicochemical; conditions: aqueous buffer at pH 7.4
All values: base-10 log of Solubility in µg/mL.

Name the reported log10 Solubility value associated with the compound Cc1ccccc1-c1ccc(N(C)CCN(C)C)c(/C=C/C(=O)c2ccccc2CN(C)C)c1 [B148] 3.52

Subsequent entry: CN(C)CCCNc1cc(Br)cc(/C=C/C(=O)c2ccccc2CN(C)C)c1 [B126] 3.92

Next compound: CN(C)Cc1ccccc1C(=O)/C=C/c1cc(N2CCN(C)CC2)ccc1Br [B124] 3.30

Here is the next compound: COc1ccccc1C(=O)/C=C/c1ccccc1N(C)CCN(C)C [B056] 3.51

Query COc1ccc(/C=C/C(=O)c2ccccc2N(C)CCN(C)C)cc1 [B023] next 4.49

Likewise for COc1ccc(C(=O)/C=C/c2cc(-c3cc(C)cc(C)c3)ccc2N(C)CCN(C)C)c(CN(C)C)c1 [B114] ? 3.63

Then this compound: CN(C)CCN(C)c1cccc(/C=C/C(=O)c2ccccc2CN(C)C)c1 [B074] 4.19

Now the compound COc1ccc(C(=O)/C=C/c2cc(-c3ccccc3)cc(N3CCN(C)CC3)c2)c(CN(C)C)c1 [B111] 3.49

---

test system: Plasmodium falciparum 7G8 (Cq-res); conditions: read-out: Plasmodium falciparum IC50
Endpoint label: IC50 (nM)
Provide only the numeric value, understood in nM.

Give the measured IC50 of "COc1ccc(C(=O)/C=C/c2cc(-c3ccccc3)cc(N3CCN(C)CC3)c2)c(CN(C)C)c1" . 1300

---

I'd appreciate it if you could supply MIC values for the items below.
system: Eschericia coli ATCC25922; assay: MIC determination in broth microdilution assay; conditions: G: Eschericia coli ATCC25922; NA: no activity
Quick note: give the figure in µM, leave out the unit.

Please provide the recorded MIC for "Cc1cc(C)cc(-c2ccc(N3CCNCC3)c(/C=C/C(=O)c3cccc(NCCN(C)C)c3)c2)c1" , tested on Eschericia coli ATCC25922. 4.7

Also check "Cc1cc(C)cc(-c2ccc(N3CCN(C)CC3)c(/C=C/C(=O)c3cccc(NCCN(C)C)c3)c2)c1" 9.4

Next up: "COc1ccc(C(=O)/C=C/c2cc(-c3cc(C)cc(C)c3)ccc2N2CCNCC2)c(CN(C)C)c1" 18.8

What would you report for "COc1ccc(C(=O)/C=C/c2cc(-c3cc(C)cc(C)c3)ccc2N2CCN(C)CC2)c(CN(C)C)c1" ? 37.5

---

tested on: non-fastidious bacteria; experiment: Activity against non-fastidious bacteria (panel); details: pathogenic Gram-positive bacteria
Endpoint label: activity against Gram-positive non-fastidious bacteria

# Sample smiles, Data value
data = [
    ("Cc1cc(C)cc(-c2ccc(N3CCN(C)CC3)c(/C=C/C(=O)c3cccc(NCCN(C)C)c3)c2)c1", "increased potency"),
    ("Cc1cc(C)cc(-c2ccc(N3CCN(C)CC3)c(/C=C/C(=O)c3ccccc3N)c2)c1", "increased potency"),
    ("COc1ccc(C(=O)/C=C/c2cc(-c3cc(C)cc(C)c3)ccc2N2CCN(C)CC2)c(CN(C)C)c1", "increased potency"),
]

---

system: Eschericia coli ESS; experiment: MIC determination in broth microdilution assay; settings: H: Eschericia coli ESS; NA: no activity
Endpoint label: MIC (µM)
Enter your answer as a number in µM; do not include the unit.

Given the entry "COc1ccc(C(=O)/C=C/c2cc(-c3ccccc3OC)ccc2N2CCN(C)CC2)c(F)c1" , report its measured MIC. 9.4

Also check "C=CC(C)(C)c1cc(/C=C/C(=O)c2ccc(O)cc2)c(OC)cc1O" 300.0

Would you kindly repeat that for "Cc1cc(C)cc(-c2ccc(N3CCN(C)CC3)c(/C=C/C(=O)c3cccc(NCCN(C)C)c3)c2)c1" ? 4.7

And then "Cc1cc(C)cc(-c2ccc(N3CCNCC3)c(/C=C/C(=O)c3cccc(NCCN(C)C)c3)c2)c1" , what is it? 4.7

Note, next up: "COc1ccc(C(=O)/C=C/c2cc(-c3cc(C)cc(C)c3)ccc2N2CCNCC2)c(CN(C)C)c1" 4.7

Same for "COc1ccc(C(=O)/C=C/c2cc(-c3cc(C)cc(C)c3)ccc2N2CCN(C)CC2)c(F)c1" 75

Would you kindly repeat that for "Cc1cc(C)cc(-c2ccc(N3CCN(C)CC3)c(/C=C/C(=O)c3ccccc3N)c2)c1" ? 9.4

Similarly, "CCCCN(CCCC)c1cccc(/C=C/C(=O)c2ccccc2NCCN(C)C)c1" ? 300.0

Now give it for "COc1ccc(C(=O)/C=C/c2cc(-c3cc(C)cc(C)c3)ccc2N2CCN(C)CC2)c(CN(C)C)c1" too. 4.7
